Test: Cytotoxicity against human HepG2/C3A cells assessed as cell viability at 180 uM after 24 hrs by neutral red uptake assay relative to control
Format: cell-based
Settings: read-out: Activity
measurement_type: viability at 24 h, 180 µM (%)
I only need the number, in %, no unit after it.

Query :: Provide only the value of recorded viability at 24 h, 180 µM for `O=Cc1ccc(OCCCCCCCCCOc2ccc(C=O)cc2)cc1`
Result :: 75.7

Query :: Provide only the value of recorded viability at 24 h, 180 µM for `O=Cc1ccc(OCCCCOc2ccc(C=O)cc2)cc1`
Result :: 55.7

Query :: Provide only the value of recorded viability at 24 h, 180 µM for `O=Cc1ccc(OCCCCCCCCCCCOc2ccc(C=O)cc2)cc1`
Result :: 75.4

----------
Assay: Cytotoxicity against human HepG2/C3A cells assessed as cell viability at 60 uM after 24 hrs by neutral red uptake assay relative to control
Assay type: cell-based
Details: read-out: Activity
measurement_type: viability at 24 h, 60 µM

O=Cc1ccc(OCCCCCCCCCCOc2ccc(C=O)cc2)cc1 | 97.7%
O=Cc1ccc(OCOc2ccc(C=O)cc2)cc1 | 96.8%
O=Cc1ccc(OCCCCCCCCOc2ccc(C=O)cc2)cc1 | 97.9%
O=Cc1ccc(OCCOc2ccc(C=O)cc2)cc1 | 93.6%
O=Cc1ccc(OCCCCCOc2ccc(C=O)cc2)cc1 | 90.4%

Proceed to the following item.
Query :: Provide only the value of recorded viability at 24 h, 60 µM for `O=Cc1ccc(OCCCCCCCCCOc2ccc(C=O)cc2)cc1`
Result :: 100%

----------
Tested on: Mycobacterium tuberculosis
Test: Antimycobacterial activity against Mycobacterium tuberculosis H37Rv ATCC 27294 assessed as growth inhibition at 0.1 uM after 6 days by luciferase reporter gene assay relative to control
Format: functional
Conditions: H37Rv ATCC 27294, 144 h, read-out: GI
Measured inhibition of growth at 0.1 µM by item

O=C(O)c1ccc(OCCCCCCCCOc2ccc(C(=O)O)cc2)cc1 | < 10%
O=Cc1ccc(OCCCCCCCOc2ccc(C=O)cc2)cc1 | 13%
O=Cc1ccc(OCCCCOc2ccc(C=O)cc2)cc1 | < 10%
O=Cc1ccc(OCOc2ccc(C=O)cc2)cc1 | < 10%
O=Cc1ccc(OCCCCCCCCCCCCCCOc2ccc(C=O)cc2)cc1 | 30%
O=C(O)c1ccc(OCCCCOc2ccc(C(=O)O)cc2)cc1 | < 10%

Query :: Provide only the value of recorded inhibition of growth at 0.1 µM for `O=C(O)c1ccc(OCCCCCCCCCOc2ccc(C(=O)O)cc2)cc1`
Result :: < 10%

----------
Experiment: Cytotoxicity against human HepG2/C3A cells assessed as cell viability at 120 uM after 24 hrs by neutral red uptake assay relative to control
Type: cell-based
Settings: read-out: Activity
Measured viability at 24 h, 120 µM by item
I only need the number, in %, no unit after it.

O=Cc1ccc(OCOc2ccc(C=O)cc2)cc1 | 91.6
O=Cc1ccc(OCCOc2ccc(C=O)cc2)cc1 | 85
O=Cc1ccc(OCCCCCOc2ccc(C=O)cc2)cc1 | 72.6
O=Cc1ccc(OCCCCCCCCCCCCOc2ccc(C=O)cc2)cc1 | 89.9
O=Cc1ccc(OCCCOc2ccc(C=O)cc2)cc1 | 94.8

Query :: Provide only the value of recorded viability at 24 h, 120 µM for `O=Cc1ccc(OCCCCCCCCCOc2ccc(C=O)cc2)cc1`
Result :: 93

Query :: Provide only the value of recorded viability at 24 h, 120 µM for `O=Cc1ccc(OCCCCCCCOc2ccc(C=O)cc2)cc1`
Result :: 78.9

Query :: Provide only the value of recorded viability at 24 h, 120 µM for `O=Cc1ccc(OCCCCOc2ccc(C=O)cc2)cc1`
Result :: 73.2

----------
System: Mycobacterium tuberculosis
Assay: Antimycobacterial activity against Mycobacterium tuberculosis H37Rv infected in mouse J774.A1 cells at 1 MOI assessed as intracellular bacterial growth inhibition at 1 uM after 1 hr by luciferase reporter gene assay relative to control
Type: functional
Conditions: J774.A1, 1 h, read-out: GI
measurement_type: percent inhibition of intracellular bacterial growth at 1 µM (%)
I only need the number, in %, no unit after it.

O=Cc1ccc(OCCCCCCCCCCOc2ccc(C=O)cc2)cc1 | 39.6
O=Cc1ccc(OCCCCCCCCCOc2ccc(C=O)cc2)cc1 | 45.7
O=Cc1ccc(OCCCCOc2ccc(C=O)cc2)cc1 | 39
O=Cc1ccc(OCCCOc2ccc(C=O)cc2)cc1 | 29.9
O=Cc1ccc(OCCCCCCCOc2ccc(C=O)cc2)cc1 | 43.3

Query :: Find percent inhibition of intracellular bacterial growth at 1 µM for `O=Cc1ccc(OCCCCCCOc2ccc(C=O)cc2)cc1` on Mycobacterium tuberculosis and write it down.
Result :: 46.6

Query :: Find percent inhibition of intracellular bacterial growth at 1 µM for `O=Cc1ccc(OCCCCCOc2ccc(C=O)cc2)cc1` on Mycobacterium tuberculosis and write it down.
Result :: 38.1

Query :: Find percent inhibition of intracellular bacterial growth at 1 µM for `O=Cc1ccc(OCCCCCCCCCCCCOc2ccc(C=O)cc2)cc1` on Mycobacterium tuberculosis and write it down.
Result :: 53.1

Query :: Find percent inhibition of intracellular bacterial growth at 1 µM for `O=Cc1ccc(OCOc2ccc(C=O)cc2)cc1` on Mycobacterium tuberculosis and write it down.
Result :: 35.2

Query :: Find percent inhibition of intracellular bacterial growth at 1 µM for `O=Cc1ccc(OCCCCCCCCOc2ccc(C=O)cc2)cc1` on Mycobacterium tuberculosis and write it down.
Result :: 42.9

Query :: Find percent inhibition of intracellular bacterial growth at 1 µM for `NNC(=O)c1ccncc1` on Mycobacterium tuberculosis and write it down.
Result :: 82.3

Query :: Find percent inhibition of intracellular bacterial growth at 1 µM for `O=Cc1ccc(OCCCCCCCCCCCOc2ccc(C=O)cc2)cc1` on Mycobacterium tuberculosis and write it down.
Result :: 48.2

Query :: Find percent inhibition of intracellular bacterial growth at 1 µM for `O=Cc1ccc(OCCOc2ccc(C=O)cc2)cc1` on Mycobacterium tuberculosis and write it down.
Result :: 32.6

----------
Test system: Mycobacterium tuberculosis
Assay: Antimycobacterial activity against Mycobacterium tuberculosis H37Rv ATCC 27294 assessed as growth inhibition at 1 uM after 6 days by luciferase reporter gene assay relative to control
Format: functional
Settings: H37Rv ATCC 27294, 144 h, read-out: GI
measurement_type: inhibition of growth at 1 µM (%)
I only need the number, in %, no unit after it.

Sample answers from the record:
O=Cc1ccc(OCCCCCCCCOc2ccc(C=O)cc2)cc1 | 64
O=Cc1ccc(OCCOc2ccc(C=O)cc2)cc1 | 41
O=Cc1ccc(OCCCCCOc2ccc(C=O)cc2)cc1 | 39
O=Cc1ccc(OCCCCCCCCCOc2ccc(C=O)cc2)cc1 | 59

Query :: Provide only the value of recorded inhibition of growth at 1 µM for `O=Cc1ccc(OCCCCCCCCCCOc2ccc(C=O)cc2)cc1`
Result :: 71

Query :: Provide only the value of recorded inhibition of growth at 1 µM for `O=C(O)c1ccc(OCCCCOc2ccc(C(=O)O)cc2)cc1`
Result :: 26

Query :: Provide only the value of recorded inhibition of growth at 1 µM for `O=Cc1ccc(OCCCCCCOc2ccc(C=O)cc2)cc1`
Result :: 65

----------
Assay: Cytotoxicity against human HepG2/C3A cells assessed as cell viability at 180 uM after 24 hrs by neutral red uptake assay relative to control
Format: cell-based
Settings: read-out: Activity
// boundary case: viability at 24 h, 180 µM equal to 60% maps to Criterion not met; strictly smaller maps to Criterion met

O=Cc1ccc(OCCCCCCCOc2ccc(C=O)cc2)cc1 | Criterion met

// switching to the query molecule
Query :: # TODO verify viability at 24 h, 180 µM < 60% strictly for this molecule: `O=Cc1ccc(OCCOc2ccc(C=O)cc2)cc1`
Result :: Criterion not met

----------
Tested on: Mycobacterium tuberculosis
Assay: Antimycobacterial activity against Mycobacterium tuberculosis H37Rv ATCC 27294 assessed as growth inhibition at 0.1 uM after 6 days by luciferase reporter gene assay relative to control
Format: functional
Conditions: H37Rv ATCC 27294, 144 h, read-out: GI
measurement_type: inhibition of growth at 0.1 µM

Sample answers from the record:
NNC(=O)c1ccncc1 | 98%
O=Cc1cccc(OCCCCCOc2cccc(C=O)c2)c1 | < 10%

Proceed to the following item.
Query :: Provide only the value of recorded inhibition of growth at 0.1 µM for `O=Cc1ccccc1OCCCCCOc1ccccc1C=O`
Result :: < 10%

----------
Experiment: Cytotoxicity against human HepG2/C3A cells assessed as cell viability at 120 uM after 24 hrs by neutral red uptake assay relative to control
Format: cell-based
Conditions: read-out: Activity
Measured viability at 24 h, 120 µM by item
I only need the number, in %, no unit after it.

Sample answers from the record:
O=Cc1ccc(OCCCCCCOc2ccc(C=O)cc2)cc1 | 85.9
O=Cc1ccc(OCCCCCCCCOc2ccc(C=O)cc2)cc1 | 95.3
O=Cc1ccc(OCCCCCCCCCCOc2ccc(C=O)cc2)cc1 | 96.6

Proceed to the following item.
Query :: Provide only the value of recorded viability at 24 h, 120 µM for `O=Cc1ccc(OCCCCCCCCCCCOc2ccc(C=O)cc2)cc1`
Result :: 94.1
